System: Avena fatua (AVEFA)
Assay: Test Example 1 post-emergence herbicidal activity
Type: in vivo
Details: 360 h, rate 125 g/ha, evaluated 15 days later, read-out: Post-emergence activity AVEFA (100=total damage to plant; 0=no damage to plant)
Method: Monocotyledonous and dicotyledonous test plants were sown in standard soil in pots. […] The test plants were then grown in a greenhouse under optimum conditions until, 15 days later for post-emergence and 20 days for pre-emergence, the test was evaluated (100=total damage to plant; 0=no damage to plant). […]
measured attribute: pest or weed control at 125 g/ha (%)

>>> recorded_result("C=CCC(=O)OC1=C(c2c(CC)cc(C)cc2CC)C(=O)[C@@H]2[C@H]1[C@H]1CC[C@@H]2O1")
90
>>> recorded_result("CSC1=C[C@@H]2O[C@@]1(C)[C@@H]1C(O)=C(c3c(C)cc(C)cc3C)C(=O)[C@H]21 (racemic)")
0
>>> recorded_result("Cc1cc(C)c(C2=C(O)[C@H]3[C@@H](C2=O)[C@]2(C)C=C[C@@]3(C)O2)c(C)c1")
30
>>> recorded_result("CCc1cc(C)cc(CC)c1C1=C(O)[C@H]2[C@@H](C1=O)[C@@H]1C=C[C@H]2O1")
90
>>> recorded_result("CSC[C@]12C=C[C@H](O1)[C@@H]1C(=O)C(c3c(C)cc(C)cc3C)=C(O)[C@@H]12 (racemic)")
0
>>> recorded_result("CCc1cc(C)cc(CC)c1C1=C(O)[C@@H]2[C@@H]3O[C@@H](C[C@H]3c3cccc(C(C)=O)c3)[C@@H]2C1=O (racemic)")
70
>>> recorded_result("CCc1cc(C)cc(C)c1C1=C(O)[C@H]2[C@@H](C1=O)[C@@H]1CC[C@H]2O1")
90

###

Test system: Lolium perenne (LOLPE)
Experiment: Test Example 1 pre-emergence herbicidal activity
Format: in vivo
Details: Lolium perenne, 480 h, rate 250 g/ha, evaluated 20 days later, read-out: Pre-emergence activity LOLPE (100=total damage to plant; 0=no damage to plant)
Experimental: Monocotyledonous and dicotyledonous test plants were sown in standard soil in pots. […] The test plants were then grown in a greenhouse under optimum conditions until, 15 days later for post-emergence and 20 days for pre-emergence, the test was evaluated (100=total damage to plant; 0=no damage to plant). […]
Below, each of the compounds is paired with its reported pest or weed control at 250 g/ha value.
measured attribute: pest or weed control at 250 g/ha (%)

>>> recorded_result("CCc1cc(C)cc(CC)c1C1=C(O)[C@H]2[C@@H](C1=O)[C@@H]1CC[C@@]2(COC)O1 [Example T17]")
100
>>> recorded_result("CCc1cc(C)cc(CC)c1C1=C(O)[C@H]2[C@@H](C1=O)[C@@H]1CC[C@H]2O1 [Example T10]")
100
>>> recorded_result("CC[C@]12C=C[C@H](O1)[C@@H]1C(=O)C(c3c(C)cc(C)cc3C)=C(O)[C@@H]12 [Example T40]")
60
>>> recorded_result("C#CCOC(=O)OC1=C(c2c(C)cc(C)cc2C)C(=O)[C@@H]2[C@H]1[C@H]1CC[C@@H]2O1 (racemic) [Example P3]")
100
>>> recorded_result("CCc1cc(C)cc(CC)c1C1=C(O)[C@@H]2[C@@H]3O[C@@H](C[C@H]3c3ccc(Cl)c(Cl)c3)[C@@H]2C1=O [Example T150]")
30
>>> recorded_result("Cc1cc(C)c(C2=C(O)[C@@H]3[C@@H]4O[C@@H](C[C@H]4c4ccc(OC(F)(F)F)cc4)[C@@H]3C2=O)c(C)c1 [Example T91]")
20

###

Below, each of the molecules is paired with its reported pest or weed control at 125 g/ha value.
system: Alopecurus myosuroides (ALOMY); assay: Test Example 1 post-emergence herbicidal activity; format: in vivo; settings: 360 h, rate 125 g/ha, evaluated 15 days later, read-out: Post-emergence activity ALOMY (100=total damage to plant; 0=no damage to plant)
measured attribute: pest or weed control at 125 g/ha (%)

>>> recorded_result("CCc1nc2ccccc2nc1[C@@H]1C[C@@H]2O[C@H]1[C@H]1C(O)=C(c3c(C)cc(C)cc3C)C(=O)[C@H]12")
30
>>> recorded_result("CCc1cc(C)cc(CC)c1C1=C(OC(=O)OCC(C)C)[C@H]2[C@@H](C1=O)[C@@H]1CC[C@H]2O1 (racemic)")
100
>>> recorded_result("CC#CCOC(=O)OC1=C(c2c(CC)cc(C)cc2CC)C(=O)[C@@H]2[C@H]1[C@H]1CC[C@@H]2O1 (racemic)")
100
>>> recorded_result("CCc1cc(C)cc(CC)c1C1=C(O)[C@H]2[C@@H](C1=O)[C@@H]1CC[C@@]2(COCC#N)O1")
100
>>> recorded_result("Cc1cc(C)c(C2=C(O)[C@@H]3[C@@H]4O[C@@H](C[C@H]4c4cccc(C(F)(F)F)c4)[C@@H]3C2=O)c(C)c1")
90
>>> recorded_result("CCc1cc(C)cc(CC)c1C1=C(O)[C@@H]2[C@@H]3O[C@@H](C[C@H]3c3cc(OC)c(OC)c(OC)c3)[C@@H]2C1=O (racemic)")
90
>>> recorded_result("CCc1cc(C)cc(CC)c1C1=C(O)[C@H]2[C@@H](C1=O)[C@@H]1CC[C@@]2(COC)O1")
100
>>> recorded_result("Cc1cc(C)c(C2=C(O)[C@H]3[C@@H](C2=O)[C@]2(C)CC(C)[C@@]3(C)O2)c(C)c1 (stereo partly shown)")
80
>>> recorded_result("CCc1cc(C)cc(CC)c1C1=C(OC(=O)C2CCCCC2)[C@H]2[C@@H](C1=O)[C@@H]1CC[C@H]2O1 (racemic)")
100
>>> recorded_result("CCc1cc(C)cc(CC)c1C1=C(O)[C@@H]2[C@@H]3O[C@@H](C[C@H]3c3ccc(Cl)cc3C)[C@@H]2C1=O (racemic)")
80
>>> recorded_result("Cc1cc(C)c(C2=C(O)[C@@H]3[C@@H]4O[C@@H](C[C@H]4c4nc(C)cnc4C)[C@@H]3C2=O)c(C)c1")
60
>>> recorded_result("CCc1cc(C)cc(CC)c1C1=C(O)C2[C@@H](C1=O)[C@@H]1C[C@@H](c3ccc(OC)cc3)[C@H]2O1 (stereo partly shown)")
90
>>> recorded_result("CCc1cc(C)cc(CC)c1C1=C(O)[C@H]2[C@@H](C1=O)[C@@H]1CC[C@@]2(C)O1")
100
>>> recorded_result("CCc1cc(C)cc(CC)c1C1=C(OC(=O)C(C)C)[C@H]2[C@@H](C1=O)[C@@H]1CC[C@H]2O1")
100
>>> recorded_result("CCc1cc(C)cc(CC)c1C1=C(O)[C@@H]2[C@@H]3O[C@@H](C[C@H]3c3ccc(C)cc3)[C@@H]2C1=O (racemic)")
90
>>> recorded_result("COc1ccc([C@@H]2C[C@@H]3O[C@H]2[C@H]2C(O)=C(c4c(C)cc(C)cc4C)C(=O)[C@H]23)cc1 (racemic)")
70
>>> recorded_result("CCc1cc(C)cc(CC)c1C1=C(O)[C@@H]2[C@@H]3O[C@@H](C[C@H]3c3ccc(F)c(Cl)c3)[C@@H]2C1=O")
80
>>> recorded_result("Cc1cc(C)c(C2=C(O)[C@@H]3[C@@H]4O[C@@H]([C@H](Br)[C@H]4Br)[C@@H]3C2=O)c(C)c1")
0
>>> recorded_result("COc1cc(C)c(C2=C(O)[C@H]3[C@@H](C2=O)[C@@H]2CC[C@H]3O2)c(C)c1")
70
>>> recorded_result("Cc1cc(C)c(C2=C(O)[C@H]3[C@@H](C2=O)[C@@H]2C=C[C@@]3(C(C)O)O2)c(C)c1 (mixture of isomers)")
10
>>> recorded_result("CCc1cc(C)cc(CC)c1C1=C(O)[C@@H]2[C@@H]3O[C@@H](C[C@H]3c3ccccc3F)[C@@H]2C1=O (racemic)")
80
>>> recorded_result("CC[C@@H]1C[C@@H]2O[C@H]1[C@H]1C(O)=C(c3c(C)cc(C)cc3C)C(=O)[C@H]12")
90
>>> recorded_result("CCOCOC[C@]12CC[C@H](O1)[C@@H]1C(=O)C(c3c(CC)cc(C)cc3CC)=C(O)[C@@H]12")
100
>>> recorded_result("Cc1cc(C)c(C2=C(OC(=O)OC(C)C)[C@H]3[C@@H](C2=O)[C@@H]2CC[C@H]3O2)c(C)c1 (racemic)")
100
>>> recorded_result("C#CCOC(=O)OC1=C(c2c(CC)cc(C)cc2CC)C(=O)[C@@H]2[C@H]1[C@H]1CC[C@@H]2O1 (racemic)")
100

###

system: Alopecurus myosuroides (ALOMY); test: Test Example 1 post-emergence herbicidal activity; assay type: in vivo; conditions: 360 h, rate 125 g/ha, evaluated 15 days later, read-out: Post-emergence activity ALOMY (100=total damage to plant; 0=no damage to plant)
Below, each of the compounds is paired with its reported pest or weed control at 125 g/ha value.
measured attribute: pest or weed control at 125 g/ha (%)

>>> recorded_result("CSC1=C[C@@H]2O[C@@]1(C)[C@@H]1C(O)=C(c3c(C)cc(C)cc3C)C(=O)[C@H]21 (racemic)")
10
>>> recorded_result("Cc1cc(C)c(C2=C(O)[C@H]3[C@@H](C2=O)[C@@H]2C=C[C@@]3(CSC(C)C)O2)c(C)c1 (racemic)")
10
>>> recorded_result("Cc1cc(C)c(C2=C(O)[C@@H]3[C@@H]4O[C@@H](C[C@H]4c4ccccc4)[C@@H]3C2=O)c(C)c1")
100
>>> recorded_result("Cc1cc(C)c(C2=C(O)[C@@H]3[C@@H]4O[C@@H](C[C@H]4c4ncc(C(F)(F)F)cc4C(F)(F)F)[C@@H]3C2=O)c(C)c1")
20
>>> recorded_result("CCC1=NOC2C1[C@@H]1O[C@H]2[C@H]2C(O)=C(c3c(CC)cc(C)cc3CC)C(=O)[C@H]21 (stereo partly drawn)")
50
>>> recorded_result("Cc1cc(C)c(C2=C(O)[C@@H]3[C@@H]4O[C@@H](C[C@H]4c4cnccn4)[C@@H]3C2=O)c(C)c1")
70
